Just for reference, patent US20130136743A1 is where these values come from.

# Target system: T1, AMHR-II/Fc fusion protein (human, UniProt Q16671 18-149, limits assumed)
# T1 construct: also called AMHR-II recombinant receptor expressed in the form of fusion protein with a region Fc; recombinant target; not shown: Fc region
# T1 sequence (Q16671 18-149 limits assumed): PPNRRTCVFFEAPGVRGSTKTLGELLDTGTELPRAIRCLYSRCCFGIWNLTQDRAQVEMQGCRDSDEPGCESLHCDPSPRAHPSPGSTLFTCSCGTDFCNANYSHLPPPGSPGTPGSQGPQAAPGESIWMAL
# Protocol notes: phage-scFv ELISA on AMHRII-Fc; mean of at least four values, standard deviation in parentheses
# Description: The secondary screening consists of analysing the clones selected at the end of the primary screening individually. For this, the 113 unique mutated clones were transferred to a culture plate (96 well-1.2 ml). After production of the phage particles, the culture supernatants containing the phages-scFv were used for carrying out an ELISA binding assay. The binding of the mutated clones was evaluated at two dilutions (½ and ¼ of the supernatants containing the scFv-phages). […]
Parameter Ratio AB invention/humanized 12G4: see the listing below.
# output: bare number, no unit

*Q* Which Ratio AB invention/humanized 12G4 is listed for 3C_23 (mutated huLFB112 phage-scFv clone) (scFv, part only; not given: scFv linker and phage partner, V domains shown, not shown: another chain or arm of the molecule; large carriers; small tags and cut ends) VH: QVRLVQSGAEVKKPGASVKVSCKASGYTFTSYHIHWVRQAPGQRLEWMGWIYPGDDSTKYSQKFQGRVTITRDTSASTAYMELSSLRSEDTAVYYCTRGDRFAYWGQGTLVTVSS VL: DIQMTQSPSTLSASVGDRVTITCRASSSVRYIAWYQQKPGKAPKLLTYPTSSLESGVPSRFSGSGSGTEFTLTISSLQPDDFATYYCLQWSSYPWTFGGGTKVEIK ?
*A* 2.6

*Q* What value of measured Ratio AB invention/humanized 12G4 is listed for 4D_91 (mutated huLFB112 phage-scFv clone) (scFv, V domains shown, scFv on M13 phage, tested as culture supernatant; Q1E: TAG codon suppressed, translated to E in E. coli XL1-blue; not shown: The 15-residue scFv peptide linker (positions 116-130 of the scFv numbering) and the M13 phage display partner) VH: EVQLVQSGAEAKKPGASVKVSCKASGYTFTSYHIHWVRQAPGQRLEWMGWIYPGDDSTKYSQKFQGRVTITRDTSASTAYMELSSLRSEDTAVYYCTRGDRFAYWGQGTLVTVSS VL: DIQMTQSPSTLSASVGDRVTITCRASSSVRYIAWYQQKPGKAPKLLIYSTSSLESGVPSRFSGSGSGTEFTLTISSLQPDDFATYYCLQWSSYPWTFGGGTKVEIK ?
*A* 1.7

*Q* Would you kindly share the measured Ratio AB invention/humanized 12G4 for 5A_28 (mutated huLFB112 phage-scFv clone) (scFv, V domains shown, scFv on M13 phage, tested as culture supernatant; not shown: The 15-residue scFv linker (positions 116-130 of the scFv numbering) and the M13 phage display partner) VH: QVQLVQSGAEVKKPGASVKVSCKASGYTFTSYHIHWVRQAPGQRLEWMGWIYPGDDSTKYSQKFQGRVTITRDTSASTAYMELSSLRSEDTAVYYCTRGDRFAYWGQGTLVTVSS VL: DIQMTQSPSTLSASVGDRVTITCRASSSVRYIAWYQQKPGKAPKLLIHPTSSLESGVPSRFSGSGSGTEFTLTISSLQPDDFATYYCLQWSSYPWTFGGGTKVEIK ?
*A* 1.6

*Q* Tell me the measured Ratio AB invention/humanized 12G4 of 4F_169 (mutated huLFB112 phage-scFv clone) (scFv, V domains shown, scFv on M13 phage, tested as culture supernatant; Q6E: TAG codon suppressed, translated to E in E. coli XL1-blue; not shown: The 15-residue scFv peptide linker (positions 116-130 of the scFv numbering) and the M13 phage display partner) VH: QVQLVESGAEVKKPGASVKVSCKASGYTFTSYHIHWVRQAPGQRLEWMGWIYPGDDSAKYSQKFQGRVTITRDTSASTAYMELSSLRSEDTAVYYCTRGDRFAYWGQGTLVTVSS VL: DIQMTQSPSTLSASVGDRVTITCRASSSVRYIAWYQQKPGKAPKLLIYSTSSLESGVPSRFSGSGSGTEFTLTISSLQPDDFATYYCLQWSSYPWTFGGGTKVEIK , please.
*A* 2
